- System: RPMI-8226 leukemia
- assay.text: NCI-60 one-dose screen, 48 h (100 = growth as untreated, 0 = no growth, -100 = all killed)
- measurement.conditions: 10 µM unless noted
Compounds without any hit were thinned out: in the full panel of roughly 83,000, 20% have a hit.
reported.metric: growth (%)
Entry rule: numbers only, all in %.

Here is how some molecules turned out for growth.
molecule	target.of.assay	growth [%]
Nc1n[nH]c2cccc(C#Cc3cccc(C(=O)Nc4ccc(Cl)c(C(F)(F)F)c4)c3)c12	RPMI-8226 leukemia	53.1
Cc1[nH]c(C(=O)Nc2ccc(C(N)=O)cc2OC(C)C)c(Cl)c1Cl	RPMI-8226 leukemia	90.4

Given the molecule `O=C(/C=C/c1ccc(Cl)cc1)c1ccc(-n2cc(CN3CCN(c4cc5c(cc4F)c(=O)c(C(=O)O)cn5C4CC4)CC3)nn2)cc1` , what is its reported growth?
11.5

Recorded growth of `O=C(CSc1nnc(-c2cc(-c3ccc(Cl)cc3)nc3ccccc23)n1-c1ccccc1)Nc1ccc(Cl)cc1` , please.
102

Would you mind telling me what growth value was observed for `O=C1NC(=O)C(=Cc2cc(-c3ccc(Cl)cc3)n(-c3ccccc3)n2)C(=O)N1` ?
92.1
